Values were extracted from ChEMBL document CHEMBL2177000.

# EXPERIMENTAL SYSTEM: UniProtKB Q969S8
# Sequence (Q969S8 whole entry): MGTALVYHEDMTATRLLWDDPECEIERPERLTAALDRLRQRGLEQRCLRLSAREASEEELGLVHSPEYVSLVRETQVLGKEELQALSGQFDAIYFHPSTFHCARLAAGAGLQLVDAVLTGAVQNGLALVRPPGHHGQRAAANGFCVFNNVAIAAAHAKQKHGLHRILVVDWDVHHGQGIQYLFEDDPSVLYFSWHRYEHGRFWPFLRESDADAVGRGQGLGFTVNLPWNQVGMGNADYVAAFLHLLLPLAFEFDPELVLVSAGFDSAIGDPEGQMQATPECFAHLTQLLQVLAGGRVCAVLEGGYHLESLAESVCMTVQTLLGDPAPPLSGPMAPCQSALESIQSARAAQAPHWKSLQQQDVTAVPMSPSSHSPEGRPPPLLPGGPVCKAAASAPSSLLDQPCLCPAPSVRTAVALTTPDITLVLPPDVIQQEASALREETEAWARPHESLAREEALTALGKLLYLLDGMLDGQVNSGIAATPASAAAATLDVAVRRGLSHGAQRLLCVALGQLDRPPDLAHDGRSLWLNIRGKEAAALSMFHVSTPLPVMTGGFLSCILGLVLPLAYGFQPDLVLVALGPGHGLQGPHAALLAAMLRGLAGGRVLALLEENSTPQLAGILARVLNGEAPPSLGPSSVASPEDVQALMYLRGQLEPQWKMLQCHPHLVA
pIC50: −log10 of the molar value.

[
  {
    "MOLECULE": "CN1C[C@H](C(=O)Nc2ccc(Cl)cc2)[C@@H](c2ccc(/C=C/C(=O)Nc3ccccc3N)cc2F)C1 (racemic)",
    "EXPERIMENTAL SYSTEM": "UniProtKB Q969S8",
    "pIC50": 5.30
  }
]
